System: 616215-338-R-J1-PDC complex spheroids, viability % test/control
EXPERIMENT: Anticancer human tumor 616215-338-R-J1-PDC patient-derived colon adenocarcinoma cell line growth inhibition [CLK]
CONDITION DESCRIPTION: curve of first compound; second compound 0.0316 µM
MEASURE NAME: IC50

[
  {
    "COMPOUND": "CC1(C)CCC(CN2CCN(c3ccc(C(=O)NS(=O)(=O)c4ccc(NCC5CCOCC5)c([N+](=O)[O-])c4)c(Oc4cnc5[nH]ccc5c4)c3)CC2)=C(c2ccc(Cl)cc2)C1 + CNC(=O)c1ccc(Nc2nc(OC3CCCC3)c3c(-c4ccc5nc(C)oc5c4)c[nH]c3n2)c(OC)c1",
    "OBSERVED MEASUREMENT": "> 10 µM"
  },
  {
    "COMPOUND": "CC(CO)NC(=O)c1cc(-c2ccc(Cl)cc2)nn(-c2cnn(C)c2)c1=O (stereo not given) + CN1CCN(c2cc(C(=O)Nc3cc4cc(-c5cnn(C)c5)ccc4cn3)ccn2)CC1",
    "OBSERVED MEASUREMENT": "> 10 µM"
  },
  {
    "COMPOUND": "C=CC(=O)N1CCN(c2nc(=O)n(-c3c(C)ccnc3C(C)C)c3nc(-c4c(O)cccc4F)c(F)cc23)C(C)C1 (stereo not given) + CN1CCN(c2cc(C(=O)Nc3cc4cc(-c5cnn(C)c5)ccc4cn3)ccn2)CC1",
    "OBSERVED MEASUREMENT": "> 10 µM"
  },
  {
    "COMPOUND": "CC(Nc1ccc2c(c1)OCCn1cc(N3C(=O)OCC3C(F)F)nc1-2)C(N)=O (stereo not given) + CNC(=O)c1ccc(Nc2nc(OC3CCCC3)c3c(-c4ccc5nc(C)oc5c4)c[nH]c3n2)c(OC)c1",
    "OBSERVED MEASUREMENT": "> 10 µM"
  },
  {
    "COMPOUND": "CCc1c2c(nc3ccc(O)cc13)-c1cc3c(c(=O)n1C2)COC(=O)[C@]3(O)CC + CNC(=O)c1ccc(Nc2nc(OC3CCCC3)c3c(-c4ccc5nc(C)oc5c4)c[nH]c3n2)c(OC)c1",
    "OBSERVED MEASUREMENT": "0.0135 µM"
  }
]

* * *

viability, T/C by entry:
System: 616215-338-R-J1-PDC complex spheroids, viability % test/control
EXPERIMENT: Anticancer human tumor 616215-338-R-J1-PDC cell line growth inhibition [CLK];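 also: spheroids exposed to agents for 7 days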;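 as to viability, T/C: 100% = DMSO vehicle wells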
CONDITION DESCRIPTION: second compound 0.1 µM; first compound 0.0316 µM; stronger effect = lower value

[
  {
    "COMPOUND": "COc1ccc([C@@H](O)c2cc(-c3ncnc4cc(N5CCOCC5)ccc34)c(F)cc2Cl)nn1 + CN1CCN(c2cc(C(=O)Nc3cc4cc(-c5cnn(C)c5)ccc4cn3)ccn2)CC1",
    "viability, T/C, %": 122
  },
  {
    "COMPOUND": "CCCS(=O)(=O)Nc1ccc(F)c(C(=O)c2c[nH]c3ncc(-c4ccc(Cl)cc4)cc23)c1F + CN1CCN(c2cc(C(=O)Nc3cc4cc(-c5cnn(C)c5)ccc4cn3)ccn2)CC1",
    "viability, T/C, %": 24.7
  },
  {
    "COMPOUND": "Nc1ccccc1NC(=O)c1ccc(CNC(=O)OCc2cccnc2)cc1 + CNC(=O)c1ccc(Nc2nc(OC3CCCC3)c3c(-c4ccc5nc(C)oc5c4)c[nH]c3n2)c(OC)c1",
    "viability, T/C, %": 56.1
  },
  {
    "COMPOUND": "CC(=O)O[C@H]1C(=O)[C@@]2(C)[C@H]([C@H](OC(=O)c3ccccc3)[C@]3(O)C[C@H](OC(=O)[C@H](O)[C@@H](NC(=O)c4ccccc4)c4ccccc4)C(C)=C1C3(C)C)[C@]1(OC(C)=O)CO[C@@H]1C[C@@H]2O + CNC(=O)c1ccc(Nc2nc(OC3CCCC3)c3c(-c4ccc5nc(C)oc5c4)c[nH]c3n2)c(OC)c1",
    "viability, T/C, %": 39.9
  },
  {
    "COMPOUND": "C#Cc1c(F)ccc2cc(O)cc(-c3ncc4c(N5CC6CCC(C5)N6)nc(OCC56CCCN5CC(F)C6)nc4c3F)c12 (stereo not given) + CN1CCN(c2cc(C(=O)Nc3cc4cc(-c5cnn(C)c5)ccc4cn3)ccn2)CC1",
    "viability, T/C, %": 101
  },
  {
    "COMPOUND": "C#Cc1c(F)ccc2cc(O)cc(-c3ncc4c(N5CC6CCC(C5)N6)nc(OCC56CCCN5CC(F)C6)nc4c3F)c12 (stereo not given) + CNC(=O)c1ccc(Nc2nc(OC3CCCC3)c3c(-c4ccc5nc(C)oc5c4)c[nH]c3n2)c(OC)c1",
    "viability, T/C, %": 59.7
  },
  {
    "COMPOUND": "Cn1ncnc1[C@H]1c2n[nH]c(=O)c3cc(F)cc(c23)N[C@@H]1c1ccc(F)cc1 + CN1CCN(c2cc(C(=O)Nc3cc4cc(-c5cnn(C)c5)ccc4cn3)ccn2)CC1",
    "viability, T/C, %": 101
  },
  {
    "COMPOUND": "CC(CO)NC(=O)c1cc(-c2ccc(Cl)cc2)nn(-c2cnn(C)c2)c1=O (stereo not given) + CN1CCN(c2cc(C(=O)Nc3cc4cc(-c5cnn(C)c5)ccc4cn3)ccn2)CC1",
    "viability, T/C, %": 94.7
  },
  {
    "COMPOUND": "CCN1CCN(Cc2ccc(Nc3ncc(F)c(-c4cc(F)c5nc(C)n(C(C)C)c5c4)n3)nc2)CC1 + CN1CCN(c2cc(C(=O)Nc3cc4cc(-c5cnn(C)c5)ccc4cn3)ccn2)CC1",
    "viability, T/C, %": 116
  },
  {
    "COMPOUND": "COc1c(OCCCN2CCOCC2)ccc2c3n(c(=NC(=O)c4cnc(N)nc4)nc12)CCN3 + CN1CCN(c2cc(C(=O)Nc3cc4cc(-c5cnn(C)c5)ccc4cn3)ccn2)CC1",
    "viability, T/C, %": 50.1
  }
]
